Tested on: K-562 leukemia
procedure-summary: NCI-60 one-dose screen, 48 h
measurement-context: 10 µM unless noted
The panel holds about 83,000 compounds, 20% with a hit somewhere; the sample as a whole holds those more often. Calls of active or inactive are those of the source. Rule for the calls: active = growth percent below 10; inactive = the rest.
Respond using exactly one of the listed classes: active, inactive

Given O=C1NC(=O)C(CSc2ccccc2)(c2ccccc2)N1 (stereo not given) , state the outcome it received in this test. inactive

Identify the outcome logged in this assay for the compound shown: "N#C/C(=C\c1ccc[nH]1)c1cc2ccccc2[nH]1" inactive

# outcome recorded in this test, key = "FC(F)(F)c1cc(CNc2nc(Cl)ncc2Br)cc(C(F)(F)F)c1" inactive

Please let me know the test result on file for "c1ccc(-c2n(Cc3ccc4ccccc4n3)c3ccccc3[n+]2Cc2ccc3ccccc3n2)cc1" . active

What outcome does the record of this test show for CCC(C)Oc1cc(/C=N/NC(=O)c2cnn3c2NC(c2ccccc2)C3)ccc1OC (stereo not given) ? inactive

Which outcome did this test record for the compound CC(C)(C)[Si](C)(C)OC1[C@@H](CNC(=O)NC(=O)CCl)O[C@@H](n2cnc3c(N)ncnc32)[C@H]1O[Si](C)(C)C(C)(C)C (stereo not given in full) ? active

// param item: "COC(=O)c1c2c(c(C)[n+]([O-])c1C)C(=O)C(NCc1ccc(O)cc1)=CC2=O" ; yields the recorded call active

What is the recorded call for this compound in the test? "COc1ccc(-c2[nH]ncc2Nc2cc(OC)c(OC)c(OC)c2)cc1" inactive

For COC(=O)/C=C1/CCC2C3CCC4=CC(=O)C(Br)CC4(C)C3C(=O)CC12C (stereo not given) , what call appears in the results of this test? inactive

// return assay outcome for "Cc1ccccc1-n1nnc(C(=O)Nc2nc(-c3ccccc3)c(-c3ccccc3)s2)c1C" inactive

Recorded test call requested for "CCN(CC)c1ccc(/C=C(\C#N)c2cc3ccccc3[nH]2)cc1" inactive

What outcome does the record of this test show for CCCCOC(=O)C1OC(Oc2ccc3c(C)cc(=O)oc3c2)[C@@H](OC(C)=O)C(OC(C)=O)C1OC(C)=O (stereo not given in full) ? inactive

Any idea what this test logged for "O=C1/C(=C/c2ccc(Cl)cc2)N=C(c2ccccc2)N1CCc1cccs1" ? inactive

How was "Cc1cc(=O)[nH]n1-c1cc(Cl)ccc1N" classified in this test? inactive

What is the recorded call for this compound in the test? "c1ccc2cc(Cn3c(-c4ccc5ccccc5c4)[n+](Cc4ccc5ccccc5c4)c4ccccc43)ccc2c1" active

How did this test come out for "COc1ccc(C2OCC(C)(C)CO2)cc1OC" ? inactive

Each compound tested received a call. Report the one for "O=c1[nH]c(-c2ccncc2)nc2sc3c(c12)CCCCCC3" . inactive

Can you look up the reported call for "O=C(N/N=C(\CS(=O)(=O)c1ccccc1)c1cc2cc(Br)ccc2oc1=O)c1ccccc1" for me? inactive

So what was the verdict on "Clc1ccc2c(N3CCN(c4ccnc(NC5CCCCC5)n4)CC3)ccnc2c1" in this test? active

Just curious, what result did "O=c1[nH]c(-c2ccccn2)nc2sc3c(c12)CCCCCC3" get here? inactive

Please state the recorded outcome for this compound: "CCCCCCCCCCCCCCn1c2ccccc2c2c3c(c4c5cc(OC)ccc5oc4c21)C(=O)NC3=O" inactive

Assay result, entry "Cc1c(NCC(=O)Nc2nc3ccccc3[nH]2)c(=O)n(-c2ccccc2)n1C" — outcome? inactive

Hey, what did the test say about "CCCN(CCC)c1ccc(/C=C/c2ccc3cc(OCC)ccc3n2)cc1" ? inactive

State the result this test recorded for "COc1ccc2nc(-n3nc(C)cc3C)c(-n3nc(C)cc3C)nc2c1" . inactive

Field: outcome | Entry: O=C(NC1CC1)c1cc2n(n1)CC(c1ccccc1)N2 (stereo not given) inactive

Returns: the outcome recorded for "NC(=O)c1cc(I)ccc1NC(=O)COc1ccccc1" in this assay. active

Check the results log: what was the call for "CN1CCc2c(Sc3ccc(C(=O)NO)cc3)c3ccccc3n2C1" ? inactive

What did this assay record as the result for "O=C(NCc1ccco1)C1CCN(S(=O)(=O)c2ccc(Cl)cc2)CC1" ? inactive

So what was the verdict on "C=CC(=O)N1CC2(CCC(n3nc(-c4ccc(Oc5ccccc5)cc4)c4c(N)ncnc43)CC2)C1" in this test? active

Just curious, what result did "COc1cc(-c2nc(SC(C)C)nc(Nc3cccc(C)c3)c2C#N)cc(OC)c1OC" get here? inactive

What outcome does the record of this test show for CC(=O)N(CC(O)CO)c1c(I)c(C(=O)NCCO)c(I)c(C(=O)NCC(O)CO)c1I (stereo not given) ? inactive

What call does the record list for "CN1CCN(c2nc(-c3ccncc3)nc3sc4c(c23)CCCCCC4)CC1" ? inactive

Record request — test call for O=C1CCC(N2C(=O)c3cccc(NCCOCCOCCNC(=O)c4cc5c(o4)C(=O)c4ccccc4C5=O)c3C2=O)C(=O)N1 (stereo not given) active

Answer briefly: the call reported for "Clc1ccc(Nc2ccnc(N3CCN(c4ccnc5cc(Cl)ccc45)CC3)n2)cc1" in this assay. inactive

Call for entry "COc1ccc(-n2ncc3c2ccc2cc(S(=O)(=O)c4ccccc4)c(=O)n(C)c23)cc1" : inactive

// return assay outcome for O=C1CC(c2ccsc2)c2snc(-c3ccc(Cl)cc3)c2N1 (stereo not given) inactive

Would you mind telling me which call this test gave "CCN(CC)c1ccc2c(c1)OS(=O)(=O)N=C2" ? inactive

Hello, I am checking results. What call was entered for "COC(=O)c1cc(-c2ccc(C)cc2)n(C(=O)CSc2nc3sc(C(N)=O)c(C)c3c(=O)n2Cc2ccccc2)n1" ? inactive

Name the outcome recorded for "Nc1ccccc1-c1n[nH]c(=O)[nH]c1=O" in the assay. inactive

Test call, this compound: "COc1cc2cc(Oc3ccc(NC(=O)Nc4cccc(C(F)(F)F)c4)cc3)c(C)nc2cc1OCCN1CCCCC1" active

---

Test system: SNB-19 CNS
procedure-summary: NCI-60 one-dose screen, 48 h (100 = growth as untreated, 0 = no growth, -100 = all killed)
measurement-context: 10 µM unless noted
This is part of a sample that, as a whole, favours compounds with a hit. Of some 83,000 tested, about 20% had one in any assay.
For each record, write down the corresponding growth.
Answer format: numeric, % implied, no suffix.

Look up growth of "CCN1CCN(C(=S)SCC(=O)Nc2nc3ccc(OC)cc3s2)CC1" and report it. 93.1

Supply measured growth of "COC(=O)CCC(=O)c1ccccc1" in your reply. 102

Output growth of "CCCN(CCC)c1ccc(/C=C/c2ccc3cc(OCC)ccc3n2)cc1" 90

Output growth of "CCN(C(=O)c1ccc2c3c(cccc13)C=C2)c1ccccc1" 93.7

Retrieve growth measured for "Cc1ccc2nc(NC(=O)CSC(=S)N3CCN(Cc4ccccc4)CC3)sc2c1" and print it. -22.2

For the compound "COc1nc2c(cc1S(=O)(=O)c1ccccc1)CCc1c-2cnn1-c1cccc(Cl)c1" , report growth. 98.2

Respond only with growth recorded for "Cn1c(=O)c2c(-c3ccccc3F)n(-c3ccc4c(c3)OCO4)cc2n(C)c1=O" 99.6

Please give measured growth of the following entry: "Cc1nc2cc(Nc3nc(NCCO)nc(Nc4ccc(F)cc4)n3)ccc2n1Cc1ccccc1" 100

Please list growth recorded for the compound "Brc1ccc(SCN(CSc2ccc(Br)cc2)Cc2ccccc2)cc1" 84.2

Identify measured growth corresponding to "Cc1c(NCC(=O)Nc2nc3ccccc3[nH]2)c(=O)n(-c2ccccc2)n1C" 97

Provide only the value of recorded growth for "O=C1c2c(c3c4cc(Br)ccc4[nH]c3c3ccc4ccccc4c23)C(=O)N1O" 85.1

---

System: HCC-2998 colon
procedure-summary: NCI-60 one-dose screen, 48 h
measurement-context: 10 µM unless noted
The panel holds about 83,000 compounds, 20% with a hit somewhere; the sample as a whole holds those more often. Activity calls are given as the source filed them. Rule for the calls: active = growth percent below 10; inactive = the rest.
Hello, when you answer, please use one of the following outcomes: active, inactive

Field: outcome | Entry: "O=C1Nc2ccc(Cl)cc2/C1=N/N=C(c1ccccc1)c1ccccc1" inactive

I'd appreciate the recorded outcome for "COC(=O)c1c2c(c(C)[n+]([O-])c1C)C(=O)C=C(NCc1ccc(F)c(Cl)c1)C2=O" from this test. active

For this compound, state the assay outcome: O=C(N/N=C/c1ccc(OC(F)F)c(OC2CCCC2)c1)c1cnn2c1NC(c1ccccc1)C2 (stereo not given) inactive

Which outcome was entered for the compound "COc1ccc(NC(=O)c2ccc3c(c2)nc(-c2ccc(Cl)cc2)n3-c2cc(C(C)(C)C)[nH]n2)cc1" in this test? inactive

Hey, what did the test say about "CC(=O)c1cc(C)c(OC(=O)c2ccccc2)c(C)c1" ? inactive

Could you kindly confirm the outcome this assay logged for "CC1(C)N=C(N)N=C(N)N1c1cccc(OCCOc2cccc([N+](=O)[O-])c2)c1" ? inactive

Call for entry "c1ccc2cc(-c3n(Cc4ccc5ccccc5n4)c4ccccc4[n+]3Cc3ccc4ccccc4n3)ccc2c1" : active

Entry "COc1ccc(/C=C2\Oc3cc(C)c(Cl)cc3C2=O)cc1OC" : call = ? inactive

Please share the test call associated with "CN1CCN(C)c2cncc(Br)c2C1=O" . inactive

Which outcome was assigned to "COc1ccc(-n2ncc3c4nc(OC)c(S(=O)(=O)c5ccccc5)cc4ccc32)cc1" in this test? inactive
